Listing of recorded melting point by entry.

Solved cases (2 shown):
Item CC1(C(=O)Nc2nc(-c3ccco3)c(C(=O)c3ccccn3)s2)CC1 [Compound 192] has what recorded melting point?
195 to 196 °C

Item Cc1cnc(C(=O)Nc2nc(-c3ccco3)c(C(=O)C3CCOCC3)s2)cn1 [Compound 510] has what recorded melting point?
130 to 131 °C

New cases:
Item CN(C)Cc1cc(C(=O)Nc2nc(-c3ccco3)c(C(=O)c3ccccc3)s2)ccn1 [Compound 141] has what recorded melting point?
205 to 209 °C

Item O=C(Nc1nc(-c2ccoc2)c(-c2ccncc2)s1)c1ccncc1 [Compound 605] has what recorded melting point?
251 to 254 °C

Item C[C@@H]1CN(CC(=O)Nc2nc(-c3ccco3)c(C(=O)c3ccccn3)s2)C[C@H](C)O1 [Compound 265] has what recorded melting point?
188 to 191 °C

Item COCCCNC(=O)Nc1nc(-c2ccco2)c(C(=O)c2ccccn2)s1 [Compound 261] has what recorded melting point?
169 to 170 °C

Item COc1ccc(C(=O)Nc2nc(-c3ccco3)c(C(=O)C3CCOCC3)s2)c(OC)c1 [Compound 484] has what recorded melting point?
219 to 222 °C

Item CN(C)Cc1ccc(C(=O)Nc2nc(-c3ccco3)c(C(=O)C3CCOCC3)s2)cc1 [Compound 479] has what recorded melting point?
109 to 112 °C

Item O=C(Nc1nc(-c2ccco2)c(C(=O)C2CCOCC2)s1)c1ccccc1 [Compound 457] has what recorded melting point?
221 to 222 °C

Item O=C(c1ccccn1)c1sc(NC(=O)C2CCN(Cc3cccnc3)CC2)nc1-c1ccco1 [Compound 197] has what recorded melting point?
208 to 209 °C

Item O=C(Nc1nc(-c2ccco2)c(C(=O)c2ccccn2)s1)c1cccs1 [Compound 241] has what recorded melting point?
197 to 199 °C

Item O=C(Nc1nc(-c2ccco2)c(C(=O)C2CCOCC2)s1)c1cc(F)cc(F)c1 [Compound 494] has what recorded melting point?
259 to 265 °C

Item COc1cc(C(=O)c2sc(NC(=O)c3ccncc3)nc2-c2ccco2)ccn1 [Compound 336] has what recorded melting point?
237 to 239 °C

Item O=C(c1sc(NC(=O)C2CCCO2)nc1-c1ccco1)C1CCOCC1 (centres unmarked) [Compound 523] has what recorded melting point?
115 to 117 °C

Item Cc1ccc(C(=O)Nc2nc(-c3ccoc3)c(C(=O)C3CCOCC3)s2)cn1 [Compound 614] has what recorded melting point?
217 to 219 °C

Item O=C(CN1CCN(c2ccccc2)CC1)Nc1nc(-c2ccco2)c(C(=O)c2ccccn2)s1 [Compound 276] has what recorded melting point?
203 to 204 °C

Item O=C(CN1CCC(N2CCCCC2)CC1)Nc1nc(-c2ccco2)c(C(=O)C2CCOCC2)s1 [Compound 552] has what recorded melting point?
177 to 179 °C

====

readout: melting point

Solved cases (6 shown):
Item "O=C(Cc1cccnc1)Nc1nc(-c2ccoc2)c(C(=O)C2CCOCC2)s1" has what recorded melting point?
195 to 197 °C

Item "O=C(Nc1nc(-c2ccccc2)c(C(=O)c2ccccn2)s1)c1ccncc1" has what recorded melting point?
231 to 235 °C

Item "O=C(Nc1nc(-c2ccccn2)c(C(=O)c2ccccn2)s1)c1ccncc1" has what recorded melting point?
232 to 234 °C

Item "COC1CCN(CC(=O)Nc2nc(-c3ccco3)c(C(=O)C3CCOCC3)s2)CC1" has what recorded melting point?
109 to 111 °C

Item "CN(C)CCN(C)Cc1cc(C(=O)Nc2nc(-c3ccco3)c(-c3ccncc3)s2)ccn1" has what recorded melting point?
203 to 205 °C

Item "CC(=O)c1ccc(C(=O)Nc2nc(-c3ccco3)c(C(=O)c3ccccn3)s2)cc1" has what recorded melting point?
204 to 206 °C

New cases:
Item "N#Cc1cccc(C(=O)Nc2nc(-c3ccco3)c(C(=O)c3ccccn3)s2)c1" has what recorded melting point?
234 to 237 °C

Item "CN1CCN(CC(=O)Nc2nc(-c3ccco3)c(C(=O)C3CCOCC3)s2)CC1" has what recorded melting point?
106 to 112 °C

Item "CC(C)(C)C(=O)c1sc(NC(=O)C2CC2)nc1-c1ccco1" has what recorded melting point?
133 to 134 °C

Item "O=C(Nc1nc(-c2ccco2)c(C(=O)C2CCOCC2)s1)c1cccc(Cl)c1" has what recorded melting point?
210 to 212 °C

Item "CCn1cc(C(=O)c2sc(NC(=O)c3ccncc3)nc2-c2ccco2)ccc1=O" has what recorded melting point?
295 to 296 °C

Item "CN1CCN(c2ccc(C(=O)c3sc(NC(=O)c4ccncc4)nc3-c3ccco3)cn2)CC1" has what recorded melting point?
195 to 205 °C

Item "CCn1nc(-c2sc(NC(=O)c3ccncc3)nc2-c2ccco2)ccc1=O" has what recorded melting point?
235 to 239 °C

Item "COCCN(C)c1cc(C(=O)Nc2nc(-c3ccco3)c(C(=O)c3ccccn3)s2)ccn1" has what recorded melting point?
114 to 117 °C

Ref: patent US7718808B2
